Values were extracted from patent US10202349B2.

Tested on: PC-3
Procedure Details: Cytotoxic activity in vitro, SRB
Format: cell-based, human
Listing of recorded EC50 by entry.
Provide the measurement as a number trailed by its unit.

Worked cases, answers included:
Smi	EC50
Cc1ccc([N+](=O)[O-])c2c(NCCCN3CCN(CCCNc4ccc5ncn6c7ccc(O)cc7c(=O)c4c56)CC3)c3ccccc3nc12	130 nM
O=c1c2cc(O)ccc2n2cnc3ccc(NCCCN4CCN(CCCNc5c6ccccc6nc6cccc([N+](=O)[O-])c56)CC4)c1c32	35 nM
CN(CCCNc1c2ccccc2nc2cccc([N+](=O)[O-])c12)CCCNc1ccc([N+](=O)[O-])c2[nH]c3ccccc3c(=O)c12	51 nM
Cc1ccc([N+](=O)[O-])c2c(NCCCN3CCN(CCCNc4ccc([N+](=O)[O-])c5[nH]c6ccccc6c(=O)c45)CC3)c3ccccc3nc12	362 nM
Cc1ccc(NCCCN2CCN(CCCNc3c4ccccc4nc4cccc([N+](=O)[O-])c34)CC2)c2c(=O)c3ccccc3[nH]c12	48 nM
O=c1c2cc(O)ccc2[nH]c2c([N+](=O)[O-])ccc(NCCCN3CCN(CCCNc4c5ccccc5nc5cccc([N+](=O)[O-])c45)CC3)c12	31 nM

The record that follows has no EC50 shown yet.
Task: Param item = CN(CCCNc1c2ccccc2nc2cccc([N+](=O)[O-])c12)CCCNc1ccc2ncn3c4ccccc4c(=O)c1c23 ; retrieve measured EC50.
Result: 28 nM

* * *

Tested on: HCT-116
Procedure Details: Cytotoxic activity in vitro, SRB
Assay type: cell-based, human
Measurement Name: pEC50
Please note pEC50 is a logarithmic value: minus log10 of concentration in mol/L. Answer with that number alone.

Task: Param item = O=c1c2ccccc2n2nnc3ccc(NCCCN4CCN(CCCNc5c6ccccc6nc6cccc([N+](=O)[O-])c56)CC4)c1c32 [C-2048] ; retrieve measured pEC50.
Result: 7.39

Task: Param item = O=c1c2ccccc2n2cnc3ccc(NCCCN4CCN(CCCNc5c6ccccc6nc6cccc([N+](=O)[O-])c56)CC4)c1c32 [C-2041] ; retrieve measured pEC50.
Result: 7.60

Task: Param item = Cc1ccc([N+](=O)[O-])c2c(NCCCN3CCN(CCCNc4ccc(C)c5[nH]c6ccccc6c(=O)c45)CC3)c3ccccc3nc12 [C-2017] ; retrieve measured pEC50.
Result: 7.33

Task: Param item = CN(CCCNc1c2ccccc2nc2cccc([N+](=O)[O-])c12)CCCNc1ccc2ncn3c4ccccc4c(=O)c1c23 [C-2028] ; retrieve measured pEC50.
Result: 7.77

Task: Param item = Cc1ccc([N+](=O)[O-])c2c(NCCCN3CCN(CCCNc4ccc5ncn6c7ccccc7c(=O)c4c56)CC3)c3ccccc3nc12 [C-2050] ; retrieve measured pEC50.
Result: 7.35

Task: Param item = O=c1c2cc(O)ccc2n2cnc3ccc(NCCCN4CCN(CCCNc5c6ccccc6nc6cccc([N+](=O)[O-])c56)CC4)c1c32 [C-2027] ; retrieve measured pEC50.
Result: 7.70

Task: Param item = O=c1c2cc(O)ccc2[nH]c2c([N+](=O)[O-])ccc(NCCCN3CCN(CCCNc4c5ccccc5nc5cccc([N+](=O)[O-])c45)CC3)c12 [C-1941] ; retrieve measured pEC50.
Result: 7.96

* * *

System: PANC-1
Procedure Details: Cytotoxic activity in vitro, SRB
Format: cell-based, human
Lab note: cut-off is 60 nM. Strictly less in EC50 is True. Exactly 60 nM or more is False.

Check out these entries, answers already filled in.
Smi	Experimental System	Class Assignment
Cc1ccc([N+](=O)[O-])c2c(NCCCN(C)CCCNc3ccc4ncn5c6ccc(O)cc6c(=O)c3c45)c3ccccc3nc12	PANC-1	False
Cc1ccc([N+](=O)[O-])c2c(NCCCNCCCNc3ccc(C)c4[nH]c5ccccc5c(=O)c34)c3ccccc3nc12	PANC-1	False
Cc1ccc([N+](=O)[O-])c2c(NCCCN3CCN(CCCNc4ccc5ncn6c7ccccc7c(=O)c4c56)CC3)c3ccccc3nc12	PANC-1	False
O=c1c2ccccc2[nH]c2c([N+](=O)[O-])ccc(NCCCN3CCN(CCCNc4c5ccccc5nc5cccc([N+](=O)[O-])c45)CC3)c12	PANC-1	True
Cc1ccc([N+](=O)[O-])c2c(NCCCN(C)CCCNc3ccc([N+](=O)[O-])c4[nH]c5ccccc5c(=O)c34)c3ccccc3nc12	PANC-1	False
O=c1c2cc(O)ccc2n2cnc3ccc(NCCCN4CCN(CCCNc5c6ccccc6nc6cccc([N+](=O)[O-])c56)CC4)c1c32	PANC-1	True

From here, focus on the item given below.
Task: Item CN(CCCNc1c2ccccc2nc2cccc([N+](=O)[O-])c12)CCCNc1ccc2ncn3c4ccccc4c(=O)c1c23 : EC50 beneath 60 nM, strictly?
Result: True

* * *

System: MCF-7
Procedure Details: Cytotoxic activity in vitro, SRB
Assay type: cell-based, human
Listing of recorded pEC50 by entry.
Please note pEC50 is a logarithmic value: minus log10 of concentration in mol/L. Answer with that number alone.

Task: Param item = CN(CCCNc1c2ccccc2nc2cccc([N+](=O)[O-])c12)CCCNc1ccc2ncn3c4ccc(O)cc4c(=O)c1c23 ; retrieve measured pEC50.
Result: 7.31

Task: Param item = O=c1c2cc(O)ccc2[nH]c2c([N+](=O)[O-])ccc(NCCCN3CCN(CCCNc4c5ccccc5nc5cccc([N+](=O)[O-])c45)CC3)c12 ; retrieve measured pEC50.
Result: 7.21

Task: Param item = Cc1ccc(NCCCN2CCN(CCCNc3c4ccccc4nc4cccc([N+](=O)[O-])c34)CC2)c2c(=O)c3ccccc3[nH]c12 ; retrieve measured pEC50.
Result: 6.95

Task: Param item = O=c1c2ccccc2[nH]c2c([N+](=O)[O-])ccc(NCCNCCNCCNc3c4ccccc4nc4cccc([N+](=O)[O-])c34)c12 ; retrieve measured pEC50.
Result: 7.14

Task: Param item = O=c1c2cc(O)ccc2n2cnc3ccc(NCCCN4CCN(CCCNc5c6ccccc6nc6cccc([N+](=O)[O-])c56)CC4)c1c32 ; retrieve measured pEC50.
Result: 7.21

Task: Param item = CN(CCCNc1c2ccccc2nc2cccc([N+](=O)[O-])c12)CCCNc1ccc2ncn3c4ccccc4c(=O)c1c23 ; retrieve measured pEC50.
Result: 7.28

* * *

Listing of recorded pEC50 by entry.
Test system: PANC-1
Procedure Details: Cytotoxic activity in vitro, SRB
Type: cell-based, human
Please note pEC50 is a logarithmic value: minus log10 of concentration in mol/L. Answer with that number alone.

Worked cases, answers included:
Smi	pEC50
COc1ccc2c(c1)c(=O)c1c(NCCCN3CCN(CCCNc4c5ccccc5nc5cccc([N+](=O)[O-])c45)CC3)ccc3ncn2c31	7.40
O=c1c2ccccc2[nH]c2c([N+](=O)[O-])ccc(NCCCNCCNCCCNc3c4ccccc4nc4cccc([N+](=O)[O-])c34)c12	7.22
O=c1c2ccccc2n2cnc3ccc(NCCNCCNCCNc4c5ccccc5nc5cccc([N+](=O)[O-])c45)c1c32	7.43

The record that follows has no pEC50 shown yet.
Task: // map Cc1ccc([N+](=O)[O-])c2c(NCCCN(C)CCCNc3ccc4ncn5c6ccccc6c(=O)c3c45)c3ccccc3nc12 to recorded pEC50 (system: PANC-1)
Result: 7.01

* * *

System: PANC-1
Procedure Details: Cytotoxic activity in vitro, SRB
Format: cell-based, human
Procedure: Cytotoxic activity tests in-vitro. A measure of the cytotoxic activity of bis-acridines are the EC50 (concentration of studied compounds at which 50% inhibition of proliferation of tumorous is observed) of the evaluated compounds that inhibit the growth of 50% of cells in relation to a control. The cytotoxic activity of the compounds was determined using SRB, recommended by the US National Cancer Institute (USA). […]
Measurement Name: pEC50
Please note pEC50 is a logarithmic value: minus log10 of concentration in mol/L. Answer with that number alone.

Worked cases, answers included:
Smi	Numeric Value
Cc1ccc(NCCCNCCCNc2c3ccccc3nc3cccc([N+](=O)[O-])c23)c2c(=O)c3ccccc3[nH]c12	6.42
Cc1ccc([N+](=O)[O-])c2c(NCCCNCCNCCCNc3ccc([N+](=O)[O-])c4[nH]c5ccccc5c(=O)c34)c3ccccc3nc12	6.85
O=c1c2ccccc2[nH]c2c([N+](=O)[O-])ccc(NCCNCCNCCNc3c4ccccc4nc4cccc([N+](=O)[O-])c34)c12	7.42
CN(CCCNc1c2ccccc2nc2cccc([N+](=O)[O-])c12)CCCNc1ccc([N+](=O)[O-])c2[nH]c3ccc(O)cc3c(=O)c12	7.49

Task: Param item = Cc1ccc(NCCNCCNc2c3ccccc3nc3cccc([N+](=O)[O-])c23)c2c(=O)c3ccccc3[nH]c12 ; retrieve measured pEC50.
Result: 6.67

Task: Param item = Cc1ccc([N+](=O)[O-])c2c(NCCNCCNCCNc3ccc([N+](=O)[O-])c4[nH]c5ccccc5c(=O)c34)c3ccccc3nc12 ; retrieve measured pEC50.
Result: 5.88

Task: Param item = O=c1c2cc(O)ccc2[nH]c2c([N+](=O)[O-])ccc(NCCCN3CCN(CCCNc4c5ccccc5nc5cccc([N+](=O)[O-])c45)CC3)c12 ; retrieve measured pEC50.
Result: 7.37

Task: Param item = O=c1c2ccccc2n2cnc3ccc(NCCCN4CCN(CCCNc5c6ccccc6nc6cccc([N+](=O)[O-])c56)CC4)c1c32 ; retrieve measured pEC50.
Result: 7.62

Task: Param item = CN(CCCNc1c2ccccc2nc2cccc([N+](=O)[O-])c12)CCCNc1ccc([N+](=O)[O-])c2[nH]c3ccccc3c(=O)c12 ; retrieve measured pEC50.
Result: 7.55

Task: Param item = CN(CCCNc1c2ccccc2nc2cccc([N+](=O)[O-])c12)CCCNc1ccc2ncn3c4ccc(O)cc4c(=O)c1c23 ; retrieve measured pEC50.
Result: 7.26

Task: Param item = Cc1ccc([N+](=O)[O-])c2c(NCCCN3CCN(CCCNc4ccc5ncn6c7ccc(O)cc7c(=O)c4c56)CC3)c3ccccc3nc12 ; retrieve measured pEC50.
Result: 7.38

Task: Param item = Cc1ccc(NCCCN2CCN(CCCNc3c4ccccc4nc4cccc([N+](=O)[O-])c34)CC2)c2c(=O)c3ccccc3[nH]c12 ; retrieve measured pEC50.
Result: 7.57

Task: Param item = Cc1ccc([N+](=O)[O-])c2c(NCCCN3CCN(CCCNc4ccc([N+](=O)[O-])c5[nH]c6ccccc6c(=O)c45)CC3)c3ccccc3nc12 ; retrieve measured pEC50.
Result: 6.89
